- test: Single dose toxicokinetic (TK) study, intratracheal instillation of T3, serum total T3 by chemiluminescence assay
- Design: species or system Sprague-Dawley rats
- measurement.setup: Sprague-Dawley, rat, in vivo; male rats, individual animals, 15 min, single intratracheal dose 2.7 μg (~10.0 μg/kg)
property: concentration at 15 min
Write the numeric value and follow it with the unit.

Quick one: concentration at 15 min of N[C@@H](Cc1cc(I)c(Oc2ccc(O)c(I)c2)c(I)c1)C(=O)O [T3, triiodothyronine] ?
2.44 ng/mL

---

- test: in vivo
- Parameters: species or system Sprague-Dawley rats
- measurement.setup: male, Sprague-Dawley, rat, inhaled or intranasal
property: Tmax (h)
Number only, in h; omit the unit.

Quick one: Tmax of "N[C@@H](Cc1cc(I)c(Oc2ccc(O)c(I)c2)c(I)c1)C(=O)O" ?
1

Taken from patent US20220265775A1.
